Data origin, for the record: the supplement of paper PMC10567573

B1: MTMR15 (parent)
chain: YVKAKKSIDKDEEFAGSSPQSSKS

# Variants of: B1
# PROTOCOL_DESCRIPTION: protein stability index of a GFP-peptide fusion (GPS, HEK-293T) (PSI 1-6); higher = more stable;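 further: lentivirally expressed fusions sorted by FACS into six bins by GFP to DsRed ratio, PSI derived from sequencing read proportions per bin multiplied by bin number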
# EXPERIMENTAL_SETUP: c terminus: a fixed tail appended
READOUT_NAME: protein stability index

CHAIN_SEQUENCE | VALUE_MEASURED
YVKAKKSIDKDQEFAGSSPQSSKS | 2.98
YVKAKKSIDKDEEFAGLSPQSSKS | 2.93
YVKAKKSIDKDEQFAGSSPQSSKS | 3.07
YVKAKKSIDKDEEFAGSSPQCSKS | 3.01
YVKAKKSIDKDEHFAGSSPQSSKS | 3.02
YVKAAKSIDKDEEFAGSSPQSSKS | 3
